The measurements presented in this section are drawn from patent US20020132817A1.

This section presents molecules with their documented melting point values.

Cc1ccc(-c2c3n(c(=O)c4ncccc24)C[C@H](C)CN(Cc2cc(C(F)(F)F)cc(C(F)(F)F)c2)C3=O)cc1 [Reference Example 66]
179 to 180 °C

Entry Cc1ccc(-c2c3n(c(=O)c4ncccc24)CC(O)CN(Cc2cc(C(F)(F)F)cc(C(F)(F)F)c2)C3=O)cc1 (racemic) [Reference Example 79] : reported melting point = ? 282 to 283 °C

Bench note: what melting point did Cc1cc(C)cc(CN2C[C@H](C)CCn3c(c(-c4ccc(Cl)c(Cl)c4)c4cccnc4c3=O)C2=O)c1 show? 137 to 139 °C

Endpoint output: melting point of Cc1ccc(-c2c3n(c(=O)c4ncccc24)CC[C@@H](C)CN(Cc2cc(C(F)(F)F)cc(C(F)(F)F)c2)C3=O)cc1 [Reference Example 72] . Value? 226 to 228 °C

Which melting point value is on record for CCC1CCn2c(c(-c3ccc(C)cc3)c3cccnc3c2=O)C(=O)N(Cc2cc(C(F)(F)F)cc(C(F)(F)F)c2)C1 (racemic) ? 258 to 260 °C

Data request, read-out melting point, for Cc1ccc(-c2ccnc3c2C(=O)N(Cc2ccccc2)C[C@H](C)CO3)cc1 [Reference Example 135] 148 to 149 °C
